Recorded values, source patent US20210253725A1.

Biological target: T1, CD134 protein (His-tagged, Sino Biological Inc. 10481-H08H) (human, UniProt P43489 29-216)
T1 construct: bought protein coated on ELISA plates; also called OX40; TNFRSF4; not shown: His tag
T1 sequence (looked up): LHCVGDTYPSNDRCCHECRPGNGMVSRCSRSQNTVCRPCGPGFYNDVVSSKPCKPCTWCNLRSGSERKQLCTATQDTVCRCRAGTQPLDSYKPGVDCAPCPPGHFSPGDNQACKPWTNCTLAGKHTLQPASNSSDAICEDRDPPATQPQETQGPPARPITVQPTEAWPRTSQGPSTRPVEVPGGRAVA
Assay: ELISA, coated His-tagged CD134; also: test concentration or dose not given here
readout.type: ELISA [abs. corr.] (abs. corr.)
Response body: numeric value in abs. corr., unit text excluded.

Q: Record request: ELISA [abs. corr.] value, item P018.S.12.A.E03 (antibody, V domains shown, V regions on human Ig constant parts; also called AB134_74) VH: QSVEESGGRLVTPGTPLTLTCTVAGIDLNICGMSWVRQAPGKGLEWIGIIYPSDYTYYATWAKGRFTISKTSTTVDLKITSPTTEDTATYFCARGLGHAWSHFDLWGQGTLVTVSS VL: AFELTQTPASVSEPVGGTVTIKCQASQSIGSDLAWYQQKPGQPPKLLIYSVSNLPSGVSSRFKGSRSGTEYTLTISDLESADAATYYCQSYYGTITTGYIAFGGGTEVVVK
Result: 2.04

Q: Record request: ELISA [abs. corr.] value, item P018.S.12.A.G05 (antibody, V domains shown, V regions on human Ig constant parts; also called AB134_87) VH: QSVEESGGRLVTPGTPLTLTCTVSGFSLSTYGMSWVRQAPGKGLEWIGIIDGGDSPYYASWAEGRFTISKTSTTVDLKITSPTTEDTATYFCARIAGSNHGPFDLWGPGTLVTVSS VL: DVVMTQTPASVSEPVGGTVTINCQASEFISNYLAWYQQKPGQPPKLLIYGASTLASGVPSRFKGSGSGTDFTLTISDLESADAATYYCQCTAYGSSYVGFGGGTEVVVK
Result: 2.04

Q: Record request: ELISA [abs. corr.] value, item P018.S.12.A.C02 (antibody, V domains shown, V regions on human Ig constant parts; also called AB134_62) VH: QEQLVESGGGLVQPEGSLTLTCTASGFSFSNNAMCWVRQAPGKGLEWIACIYDGSSGSTYYATWAKGRFTISKTSSTTVTLQMTSLTAADTATYFCARAYGGYTVYDYAFNLWGPGTLVTVSS VL: DVVMTQTPASVSEPVGGTVTIKCQASQSIGSDLAWYQQKPGQPPKLLIYYTTNLETGVSSRFKGSRSGTEYALTISDLESADAATYYCQYGVRSTYSFGGGTEVVVK
Result: 2.05
